Data credit: ChEMBL document CHEMBL1961873

# maps each entry to its inhibition
Molecular target: MAP/microtubule affinity-regulating kinase 4 (Homo sapiens);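 note: reported value is a mean MARK4 inhibition at 1 µM, taken from the GSK PKIS screening set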
Sequence (whole entry): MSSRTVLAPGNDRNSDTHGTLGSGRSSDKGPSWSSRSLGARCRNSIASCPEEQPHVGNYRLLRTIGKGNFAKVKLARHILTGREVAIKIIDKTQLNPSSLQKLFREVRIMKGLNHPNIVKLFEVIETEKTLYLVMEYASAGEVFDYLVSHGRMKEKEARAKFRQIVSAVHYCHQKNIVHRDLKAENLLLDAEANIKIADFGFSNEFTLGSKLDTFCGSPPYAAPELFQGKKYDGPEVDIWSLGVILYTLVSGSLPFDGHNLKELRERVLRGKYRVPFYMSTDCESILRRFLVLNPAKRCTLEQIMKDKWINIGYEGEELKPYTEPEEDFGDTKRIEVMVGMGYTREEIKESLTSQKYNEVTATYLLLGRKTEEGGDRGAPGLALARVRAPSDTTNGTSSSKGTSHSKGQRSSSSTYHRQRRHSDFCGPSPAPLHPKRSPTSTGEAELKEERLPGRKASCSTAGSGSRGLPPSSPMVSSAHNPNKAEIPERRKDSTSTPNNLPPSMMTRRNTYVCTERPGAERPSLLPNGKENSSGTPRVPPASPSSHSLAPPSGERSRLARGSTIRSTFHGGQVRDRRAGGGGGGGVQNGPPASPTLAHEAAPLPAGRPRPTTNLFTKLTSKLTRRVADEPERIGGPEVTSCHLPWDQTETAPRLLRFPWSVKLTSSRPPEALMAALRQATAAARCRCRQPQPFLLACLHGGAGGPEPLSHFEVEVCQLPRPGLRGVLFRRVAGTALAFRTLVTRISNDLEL
Settings: at 1 µM
Recorded Endpoint: inhibition (%)

> print(dat)
                                   molecule  value.units  observed
1  COc1cc2ncn(-c3cc(OCc4ccccc4C(F)(F)F)c(C(C)=O)s3)c2cc1OC            %      2.91
2    Clc1ccc(CNc2nccc(-c3cnn4ncccc34)n2)cc1            %     -0.74
3  CCC(=O)Nc1ccc(C)c(-c2ccc(C(=O)NCC3CC3)cc2)c1            %      2.23
4  CN(C)CCCNc1nccc(-c2c(-c3ccc(F)cc3)nn3cc(C(F)(F)F)ccc23)n1            %      2.72
5  NC(=O)Cc1ccccc1Oc1nccc(-c2c(-c3ccc(F)cc3)ncn2C2CCNCC2)n1            %      1.97
6  COc1cc(C)c(N(C)C(=O)CN(C)C)cc1Nc1nc(Nc2cccc(F)c2C(N)=O)c2cc[nH]c2n1            %      1.75
7  FC(F)(F)c1cccc(Nc2nccc(-c3cnn4nc(-c5ccccc5)ccc34)n2)c1            %      1.01
8  COc1ccc2cc(-c3c(-c4ccncc4)nc(-c4ccc([S+](C)[O-])cc4C)n3C)ccc2c1 (centres undefined)            %     -0.24
9  Cc1ccc(NC(=O)c2ccoc2)cc1-c1ccc(C(=O)NCC2CC2)cc1            %      0.19
